- System under test: HLA-B4001 (Homo sapiens, UniProt P01889, A65T/A93T/A95T/D138N/D98Y/E176V/E69K/N87E/Q56L/Q94N/R180L/S121R/S35A/S48T/T167S/V36M/W171L/Y33H/Y91S)
- Experiment summary: Competitive peptide binding assay, CIR-B4001
- Measurement setup: HMy2.CIR-B4001 cells, reference Cy5-[…], class from inhibition at 5 and 15 μM, flow cytometry MFI; read-out: Binding affinity with HLA-B4001
pIC50: −log10 of the molar value. Peptide text beside a SMILES is read from it.
Value kind: pIC50

Observe how each entry below is paired with its result.
INSERT INTO measurements (molecule, observed_measurement) VALUES
  ('CC[C@H](C)[C@H](NC(=O)[C@H](CC(N)=O)NC(=O)[C@H](CCCCN)NC(=O)[C@H](Cc1ccccc1)NC(=O)[C@@H](NC(=O)[C@@H](N)Cc1ccccc1)C(C)C)C(=O)N[C@@H](CC(=O)O)C(=O)NCC(=O)N[C@@H](Cc1ccc(O)cc1)C(=O)O [Epitope Y172] (H-FVFKNIDGY-OH; N-terminus and C-terminus assumed)', '< 4.82'),
  ('CC[C@H](C)[C@H](NC(=O)[C@H](CC(C)C)NC(=O)[C@H](CS)NC(=O)CNC(=O)[C@H](C)NC(=O)[C@H](CCCNC(=N)N)NC(=O)[C@@H](NC(=O)[C@H](CCC(N)=O)NC(=O)[C@@H](N)Cc1ccccc1)[C@@H](C)O)C(=O)O [Epitope Y89] (H-FQTRAGCLI-OH; N-terminus and C-terminus assumed)', '4.82 to 5.30'),
  ('CSCC[C@H](NC(=O)[C@H](C)NC(=O)[C@@H]1CCCN1C(=O)[C@H](CC(=O)O)NC(=O)[C@H](C)NC(=O)[C@H](C)NC(=O)[C@H](Cc1ccc(O)cc1)NC(=O)[C@@H](NC(=O)[C@@H](N)CC(C)C)C(C)C)C(=O)O [Epitope Y165] (H-LVYAADPAM-OH; N-terminus and C-terminus assumed)', '< 4.82'),
  ('CC[C@H](C)[C@H](NC(=O)[C@H](Cc1ccc(O)cc1)NC(=O)[C@H](CCC(N)=O)NC(=O)[C@H](CCC(=O)O)NC(=O)[C@@H](N)Cc1ccc(O)cc1)C(=O)N[C@@H](CCCCN)C(=O)N[C@@H](Cc1c[nH]c2ccccc12)C(=O)N1CCC[C@H]1C(=O)N[C@@H](Cc1c[nH]c2ccccc12)C(=O)O [Epitope Y230] (H-YEQYIKWPW-OH; N-terminus and C-terminus assumed)', '< 4.82'),
  ('C[C@H](NC(=O)[C@H](CO)NC(=O)[C@@H](N)CCCCN)C(=O)NCC(=O)N[C@@H](Cc1ccccc1)C(=O)N1CCC[C@H]1C(=O)N[C@@H](Cc1ccccc1)C(=O)N[C@@H](CC(N)=O)C(=O)N[C@@H](CCCCN)C(=O)N[C@@H](Cc1c[nH]c2ccccc12)C(=O)O [Epitope Y306] (H-KSAGFPFNKW-OH; N-terminus and C-terminus assumed)', '< 4.82'),
  ('CC(C)C[C@H](NC(=O)[C@H](Cc1c[nH]cn1)NC(=O)[C@H](Cc1ccccc1)NC(=O)[C@@H](NC(=O)[C@H](CC(=O)O)NC(=O)[C@H](C)NC(=O)[C@H](Cc1ccc(O)cc1)NC(=O)[C@H](CCC(=O)O)NC(=O)[C@@H](N)CCC(N)=O)C(C)C)C(=O)O [Epitope Y71] (H-QEYADVFHL-OH; N-terminus and C-terminus assumed)', '4.82 to 5.30'),
  ('CC(C)C[C@H](NC(=O)[C@H](CC(C)C)NC(=O)[C@H](CC(C)C)NC(=O)[C@H](CC(N)=O)NC(=O)[C@H](CO)NC(=O)[C@H](CS)NC(=O)[C@H](CCC(=O)O)NC(=O)[C@@H](N)[C@@H](C)O)C(=O)N[C@@H](CCC(N)=O)C(=O)N[C@@H](Cc1ccc(O)cc1)C(=O)O [Epitope Y231] (H-TECSNLLLQY-OH; N-terminus and C-terminus assumed)', '< 4.82');

Now for another entry.
So what does the record say about pIC50 for CC(C)C[C@H](NC(=O)[C@H](CCC(=O)O)NC(=O)[C@H](CCCCN)NC(=O)[C@H](Cc1ccccc1)NC(=O)[C@H](CO)NC(=O)[C@@H](N)CC(C)C)C(=O)N[C@@H](CC(C)C)C(=O)N[C@H](C(=O)N[C@@H](Cc1ccc(O)cc1)C(=O)O)C(C)C [Epitope Y142] (H-LSFKELLVY-OH; N-terminus and C-terminus assumed) ?
< 4.82

* * *

- System under test: HLA-B3501 (Homo sapiens, UniProt P01889, A329T/A93T/A95T/C349S/D201E/D98Y/E176V/E187L/E204Q/E69T/I218V/K202T/L119I/Q94N/R155S/R180L/S121R/S35A/S48A/T118I/V127L/V306I/V36M/Y140S/Y91F)
- Experiment summary: Competitive peptide binding assay, CIR-B3501
- Measurement setup: HMy2.CIR-B3501 cells, reference Cy5-[…], class from inhibition at 5 and 15 μM, flow cytometry MFI; read-out: Binding affinity with HLA-B3501
- Method: Then, competitive peptide binding assays were performed.
Peptide text beside a SMILES is read from it.
# IC50 per record follows

Observe how each entry below is paired with its result.
INSERT INTO measurements (compound, value_kind, observed_measurement) VALUES
  ('CSCC[C@H](NC(=O)[C@H](C)NC(=O)[C@@H](N)Cc1ccccc1)C(=O)N[C@@H](CCC(N)=O)C(=O)N[C@@H](CCSC)C(=O)N[C@@H](C)C(=O)N[C@@H](Cc1ccc(O)cc1)C(=O)N[C@@H](CCCNC(=N)N)C(=O)N[C@@H](Cc1ccccc1)C(=O)O [Epitope Y189]', 'IC50', '5 to 15 µM'),
  ('C[C@H](NC(=O)[C@H](CO)NC(=O)[C@H](CO)NC(=O)[C@@H](N)Cc1ccc(O)cc1)C(=O)N[C@@H](CC(N)=O)C(=O)N[C@@H](CC(N)=O)C(=O)N[C@@H](CS)C(=O)N[C@H](C(=O)N[C@@H](Cc1ccccc1)C(=O)O)[C@@H](C)O [Epitope Y247] (H-YSSANNCTF-OH; N-terminus and C-terminus assumed)', 'IC50', '> 15 µM'),
  ('CC(C)C[C@H](NC(=O)[C@H](CCC(N)=O)NC(=O)[C@@H](NC(=O)[C@H](CS)NC(=O)[C@H](Cc1ccccc1)NC(=O)[C@H](CO)NC(=O)CNC(=O)[C@H](Cc1ccc(O)cc1)NC(=O)[C@H](CCC(N)=O)NC(=O)[C@@H](N)CC(C)C)[C@@H](C)O)C(=O)O [Epitope Y88] (H-LQYGSFCTQL-OH; N-terminus and C-terminus assumed)', 'IC50', '5 to 15 µM');

Now for another entry.
So what does the record say about IC50 for CC[C@H](C)[C@H](NC(=O)[C@H](Cc1ccc(O)cc1)NC(=O)[C@H](CCC(N)=O)NC(=O)[C@H](CCC(=O)O)NC(=O)[C@@H](N)Cc1ccc(O)cc1)C(=O)N[C@@H](CCCCN)C(=O)N[C@@H](Cc1c[nH]c2ccccc12)C(=O)N1CCC[C@H]1C(=O)N[C@@H](Cc1c[nH]c2ccccc12)C(=O)O [Epitope Y230] (H-YEQYIKWPW-OH; N-terminus and C-terminus assumed) ?
> 15 µM

* * *

# IC50 per record follows
- System under test: HLA-B5801 (Homo sapiens, UniProt P01889, A329T/C349S/D201E/D98Y/E176V/E187L/E204Q/E69T/G107R/I218V/I90N/K202T/L105A/L119I/N104I/N87E/Q89R/Q94S/R106L/R155S/R180L/R86G/S101N/S121R/S35A/S48A/T118I/V127L/V306I/V36M/Y140S/Y91M)
- Experiment summary: Competitive peptide binding assay, CIR-B5801
- Measurement setup: HMy2.CIR-B5801 cells, reference Cy5-[…], class from inhibition at 5 and 15 μM, flow cytometry MFI; read-out: Binding affinity with HLA-B5801
- Method: Then, competitive peptide binding assays were performed.
Peptide text beside a SMILES is read from it.

So what does the record say about IC50 for CC[C@H](C)[C@H](NC(=O)[C@@H](NC(=O)CNC(=O)[C@H](CC(N)=O)NC(=O)[C@H](CO)NC(=O)[C@H](CC(=O)O)NC(=O)[C@H](C)N)[C@@H](C)O)C(=O)N[C@H](C(=O)N[C@H](C(=O)O)C(C)C)[C@@H](C)O [Epitope Y216] (H-ADSNGTITV-OH; N-terminus and C-terminus assumed) ?
5 to 15 µM

* * *

- System under test: HLA-C0102 (Homo sapiens, UniProt P10321, A176E/A330V/A35S/A97T/C350S/D114A/D33F/L171W/L180R/L218V/M285V/M309V/M331V/P208H/Q277E/Q291P/R121W/R243W/R30K/S123C/S140Y/S297R/T329A/T363A/V272M/V319A)
- Experiment summary: Competitive peptide binding assay, CIR-C0102
- Measurement setup: HMy2.CIR-C0102 cells, reference Cy5-[…], class from inhibition at 5 and 15 μM, flow cytometry MFI; read-out: Binding affinity with HLA-C0102
pIC50: −log10 of the molar value. Peptide text beside a SMILES is read from it.
# pIC50 per record follows

INSERT INTO results (molecule, value_kind, observed_measurement) VALUES
  ('CC[C@H](C)[C@H](NC(=O)[C@@H]1CCCN1C(=O)[C@@H](NC(=O)[C@H](Cc1c[nH]cn1)NC(=O)[C@H](CCCCN)NC(=O)[C@H](CO)NC(=O)[C@H](Cc1ccc(O)cc1)NC(=O)[C@@H](NC(=O)[C@@H](N)CCCCN)[C@@H](C)CC)[C@@H](C)O)C(=O)O [Epitope M34] (H-KIYSKHTPI-OH; N-terminus and C-terminus assumed)', 'pIC50', '> 5.30');

So what does the record say about pIC50 for CC[C@H](C)[C@H](NC(=O)[C@H](C)NC(=O)[C@H](C)NC(=O)[C@H](CC(N)=O)NC(=O)[C@H](CC(N)=O)NC(=O)[C@H](C)NC(=O)[C@@H]1CCCN1C(=O)[C@H](CC(N)=O)NC(=O)[C@H](CCCNC(=N)N)NC(=O)[C@@H](N)[C@@H](C)O)C(=O)O [Epitope M117] (H-TRNPANNAAI-OH; N-terminus and C-terminus assumed) ?
< 4.82

So what does the record say about pIC50 for CC[C@H](C)[C@H](NC(=O)[C@@H](NC(=O)[C@H](CC(N)=O)NC(=O)[C@H](CCCNC(=N)N)NC(=O)[C@H](CCCCN)NC(=O)[C@@H](NC(=O)[C@H](Cc1ccc(O)cc1)NC(=O)[C@H](C)NC(=O)[C@@H](N)Cc1ccccc1)[C@@H](C)O)C(C)C)C(=O)O [Epitope M23] (H-FAYTKRNVI-OH; N-terminus and C-terminus assumed) ?
4.82 to 5.30
